System: Staphylococcus aureus
procedureDetails: Growth inhibition of Staphylococcus aureus at 200 ug/ml by cup-plate method
Type: functional, organism-based
Calls of active or inactive are those of the source. The rule behind the calls is not given here.
Write down the outcome that applies. Available outcomes: active, inactive

INSERT INTO results (smilesentry, classname) VALUES
  ('COc1ccc(C(=O)Cn2c(-c3ccccc3)c(C=C3C(=O)NC(=O)NC3=O)c3ccccc32)cc1', 'inactive'),
  ('O=C1NC(=O)C(=Cc2c(-c3ccccc3)n(CC(=O)c3ccc(Br)cc3)c3ccccc23)C(=O)N1', 'active'),
  ('O=C1NC(=O)C(=Cc2c(-c3ccccc3)n(CC(=O)c3ccc(Cl)cc3)c3ccccc23)C(=O)N1', 'active'),
  ('CC1(C)S[C@@H]2[C@H](NC(=O)[C@H](N)c3ccccc3)C(=O)N2[C@H]1C(=O)O', 'active'),
  ('C=CCn1c(-c2ccccc2)c(C=C2C(=O)NC(=O)NC2=O)c2ccccc21', 'active'),
  ('CCCCn1c(-c2ccccc2)c(C=C2C(=O)NC(=O)NC2=O)c2ccccc21', 'active'),
  ('CCn1c(-c2ccccc2)c(C=C2C(=O)NC(=O)NC2=O)c2ccccc21', 'inactive'),
  ('O=C1NC(=O)C(=Cc2c(-c3ccccc3)n(CC(=O)c3ccccc3)c3ccccc23)C(=O)N1', 'inactive');

[Q] Hello, I am checking results. What call was entered for `O=C1NC(=O)C(=Cc2c(-c3ccccc3)n(CC(=O)c3ccc(-c4ccccc4)cc3)c3ccccc23)C(=O)N1` ?
[A] active
